tested on: 621-103 (TSC2-rescued); assay: relative viability vs DMSO; higher = less cytotoxic; details: 0.1 µM; serum: 10% FBS; 72 h;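 note: immortalized renal angiomyolipoma cells stably carrying empty vector or TSC2, dosed in 384-well plates in DMEM, viability normalized to vehicle-treated wells within each plate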
Where a name gives a salt, the structure may show the parent alone.
VALUE_KIND: relative viability (%)
One number for each entry, in %.

Before answering, review these 2 worked examples.
## Task Form field: reported relative viability of `CN1CCN(C2=Nc3cc(Cl)ccc3Nc3ccccc32)CC1`
## Result 105

## Task // query: CC(=O)O[C@H]1CC[C@@]2(C)C(=CC[C@@H]3[C@@H]2CC[C@]2(C)C(c4cccnc4)=CC[C@@H]32)C1 [Abiraterone Acetate (CB7630)]
## Result 111

The following compounds each have a reported value; give each one's relative viability.
1. Cc1nnc(C(=O)NC(C)(C)c2nc(C(=O)NCc3ccc(F)cc3)c(O)c(=O)n2C)o1
2. CC1=NN(c2ccc(C)c(C)c2)C(=O)/C1=N\Nc1cccc(-c2cccc(C(=O)O)c2)c1O
3. Nc1nc(F)nc2c1ncn2[C@@H]1O[C@H](CO)[C@@H](O)[C@@H]1O
4. Cc1[nH]nc2ccc(-c3cncc(OC[C@@H](N)Cc4ccccc4)c3)cc12
5. CN1CC[C@H](c2c(O)cc(O)c3c(=O)cc(-c4ccccc4Cl)oc23)[C@H](O)C1 [Flavopiridol HCl]
6. CCN(CC)CCOc1ccc(C(=C(Cl)c2ccccc2)c2ccccc2)cc1 [Clomifene citrate (Serophene)]

## Result
1: 98.8; 2: 99.8; 3: 103; 4: 101; 5: 55.2; 6: 96.1
